# protocol_summary: in vivo
# Design: species or system nude mice
# conditions_used: nude, mouse, total radioactivity, Tumor-to-tissue ratio Lg. Intestine
*1 amine or outer side, *2 acyl side, *3 side chain or, on linkers, in order; H or OH if unused. Where a SMILES comes first, the peptide text is derived from it. Side-chain parts run from the residue outwards. [ ]: non-standard residue; d: D form. The star is where a group is joined. DOTA = O=C(O)CN1CCN(CC(=O)O)CCN(CC(=O)*)CCN(CC(=O)O)CC1; NH(2-(imidazol-4-yl)ethyl) = c1ncc(CCN*)[nH]1; Suc = O=C(CCC(=O)[*:2])[*:1]
endpoint: tissue to tissue ratio at 2 h
Answers are plain numbers.

Data request: I am curious: what tissue to tissue ratio at 2 h value has been reported for NC(=O)[C@H](CCCCNC(=O)CNC(=O)CCC(=O)NCCc1cnc[nH]1)NC(=O)[C@@H](Cc1ccc(O)cc1)NC(=O)[C@H](CCCCNC(=O)CNC(=O)CCC(=O)NCCc1cnc[nH]1)NC(=O)[C@H](Cc1ccccc1)NC(=O)CN1CCN(CC(=O)O)CCN(CC(=O)O)CCN(CC(=O)O)CC1 [Ga-67-IMP 241, metal not drawn] ({DOTA}-FK([Gly-Suc-NH(2-(imidazol-4-yl)ethyl)])[dY]K([Gly-Suc-NH(2-(imidazol-4-yl)ethyl)])-NH2) ?
Data returned: 74.2

---

# protocol_summary: in vivo
# Set-up: species or system nude mice
# conditions_used: nude, mouse, total radioactivity, Tumor-to-tissue ratio Spleen
*1 amine or outer side, *2 acyl side, *3 side chain or, on linkers, in order; H or OH if unused. Where a SMILES comes first, the peptide text is derived from it. Side-chain parts run from the residue outwards. [ ]: non-standard residue; d: D form. The star is where a group is joined. DOTA = O=C(O)CN1CCN(CC(=O)O)CCN(CC(=O)*)CCN(CC(=O)O)CC1; NH(2-(imidazol-4-yl)ethyl) = c1ncc(CCN*)[nH]1; Suc = O=C(CCC(=O)[*:2])[*:1]
endpoint: tissue to tissue ratio at 3 h

Data request: I am curious: what tissue to tissue ratio at 3 h value has been reported for NC(=O)[C@H](CCCCNC(=O)CNC(=O)CCC(=O)NCCc1cnc[nH]1)NC(=O)[C@@H](Cc1ccc(O)cc1)NC(=O)[C@H](CCCCNC(=O)CNC(=O)CCC(=O)NCCc1cnc[nH]1)NC(=O)[C@H](Cc1ccccc1)NC(=O)CN1CCN(CC(=O)O)CCN(CC(=O)O)CCN(CC(=O)O)CC1 [Ga-67-IMP 241, metal not drawn] ({DOTA}-FK([Gly-Suc-NH(2-(imidazol-4-yl)ethyl)])[dY]K([Gly-Suc-NH(2-(imidazol-4-yl)ethyl)])-NH2) ?
Data returned: 16.3

---

# protocol_summary: in vivo
# Design: species or system nude mice
# conditions_used: nude, mouse, total radioactivity, Tumor-to-tissue ratio Lg. Intestine
*1 amine or outer side, *2 acyl side, *3 side chain or, on linkers, in order; H or OH if unused. Where a SMILES comes first, the peptide text is derived from it. Side-chain parts run from the residue outwards. [ ]: non-standard residue; d: D form. The star is where a group is joined. DOTA = O=C(O)CN1CCN(CC(=O)O)CCN(CC(=O)*)CCN(CC(=O)O)CC1; NH(2-(imidazol-4-yl)ethyl) = c1ncc(CCN*)[nH]1; Suc = O=C(CCC(=O)[*:2])[*:1]
endpoint: tissue to tissue ratio at 4 h
Give bare numbers.

Data request: I am curious: what tissue to tissue ratio at 4 h value has been reported for NC(=O)[C@H](CCCCNC(=O)CNC(=O)CCC(=O)NCCc1cnc[nH]1)NC(=O)[C@@H](Cc1ccc(O)cc1)NC(=O)[C@H](CCCCNC(=O)CNC(=O)CCC(=O)NCCc1cnc[nH]1)NC(=O)[C@H](Cc1ccccc1)NC(=O)CN1CCN(CC(=O)O)CCN(CC(=O)O)CCN(CC(=O)O)CC1 [Ga-67-IMP 241, metal not drawn] ({DOTA}-FK([Gly-Suc-NH(2-(imidazol-4-yl)ethyl)])[dY]K([Gly-Suc-NH(2-(imidazol-4-yl)ethyl)])-NH2) ?
Data returned: 56.5
